system: SK-MEL-28; test: NCI tumour cell line growth inhibition, 48 h
Active and inactive are the calls of the source. Rule as the data show it: active = GI50 up to about 1.1 µM and inactive = higher.
Overview of reported GI50 across a group of compounds:

The value of GI50 measured for the compound C[C@]12CCc3nonc3C1CC[C@@H]1C2CC[C@]2(C)C(=O)/C(=N\O)CC12 (stereo partly drawn) turned out to be > 100 µM (inactive)

Next:
The value of GI50 measured for the compound C[C@]12CCC(=O)C=C1CC[C@@H]1C2CC[C@]2(C)c3nn(-c4ccccc4)nc3CC12 (stereo partly drawn) turned out to be > 100 µM (inactive)

###

Overview of reported GI50 across a group of molecules:
tested on: RXF 393; experiment: NCI tumour cell line growth inhibition, 48 h
Active and inactive are the calls of the source. No stated cut-off is given here; in the data, active = GI50 up to about 1.1 µM and inactive = higher.

The following molecules have reported results that may help.
// GI50 (RXF 393) for N=C(N)SC(c1ccccc1)c1ccccc1 = 6.52 µM (inactive)

// GI50 (RXF 393) for CC(=O)NC1=CC(=O)c2cc(C)cc(O)c2C1=O = 12.5 µM (inactive)

// GI50 (RXF 393) for CC(=O)Nc1ccc(/C=N\N2C(=O)c3ccccc3C2=O)cc1 = > 100 µM (inactive)

// GI50 (RXF 393) for CCCCCC(=O)OCC1(CO)C/C(=C/CC(C(C)C)C(C)C)C(=O)O1 (stereo unspecified) = > 75 µM (inactive)

// GI50 (RXF 393) for CC(=O)n1c2c(c(=O)n1-c1ccccc1)[S+]([O-])CCC2 (stereo unspecified) = 15.6 µM (inactive)

Next:
// GI50 (RXF 393) for CC1=CP(=O)(c2c(C(C)C)cc(C(C)C)cc2C(C)C)CCC1Cl (stereo unspecified) = 14.7 µM (inactive)
